Test system: KRAS-mutant PDC tumor spheroid with HUVEC/MSC, viability;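 further: spheroids exposed to agents for seven days before reading; 100% = DMSO vehicle wells so lower means fewer viable cells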
Assay: Anticancer human tumor 327498-153-R-J2-PDC patient-derived uterine carcinosarcoma cell line growth inhibition [KRAS2]
Details: second compound 10 µM; first compound 0.1 µM; hits give low values
Give viability, T/C for every item shown.
One number for each entry, in %.

* Cn1ncnc1[C@H]1c2n[nH]c(=O)c3cc(F)cc(c23)N[C@@H]1c1ccc(F)cc1 + CC1OCC2(CCN(c3cnc(Sc4ccnc(N)c4Cl)c(N)n3)CC2)C1N | 8.58
* CC(C)n1nc(-c2ccc3oc(N)nc3c2)c2c(N)ncnc21 + CC1OCC2(CCN(c3cnc(Sc4ccnc(N)c4Cl)c(N)n3)CC2)C1N | 3.29
* COc1cc2nccc(Oc3ccc(NC(=O)C4(C(=O)Nc5ccc(F)cc5)CC4)cc3)c2cc1OC + COc1cc2nc(C)nc(NC(C)c3cc(N)cc(C(F)(F)F)c3)c2cc1OC1CCOC1 | 44.8

Recorded viability, T/C for CC1OCC2(CCN(c3cnc(Sc4ccnc(N)c4Cl)c(N)n3)CC2)C1N (centres undefined) + C=CC(=O)N1CCN(c2nc(=O)n(-c3c(C)ccnc3C(C)C)c3nc(-c4c(O)cccc4F)c(F)cc23)C(C)C1 , please?
28
